The measured values listed here are drawn from paper PMC8171112.

STUDY_TARGET: catalytic domain of TET2 (TET2CD) (Homo sapiens, UniProt Q6N021)
ASSAY_TEXT: ELISA of 5hmC for TET2 activity, cell free
Type: biochemical
APPLIED_CONDITIONS: read-out: EC50, TET2CD dioxygenase activity response to α-KG; ELISA, Figure 5A

{"columns": ["COMPOUND", "STUDY_TARGET", "EC50"],
 "data": [
  ["O=C(O)CCC(=O)C(=O)O [α-KG, α-ketoglutarate, reference compound]", "catalytic domain of TET2 (TET2CD) (Homo sapiens, UniProt Q6N021)", "3.5 µM"]
]}
